Numbers sourced from ChEMBL document CHEMBL1201862.

- Tested on: HOP-92
- assayInfo: NCI tumour cell line growth inhibition, 48 h
Calls of active or inactive are those of the source. Rule as the data show it: active = GI50 up to about 1.1 µM and inactive = higher.
compounds and their reported GI50
valueType: GI50

compound | targetEntity | observedMeasurement
Clc1ccc2c(c1)-c1c3c(nn1-c1ccccc1)-c1ccccc1SC3O2 (stereo not given) | HOP-92 | 35.7 µM (inactive)
COC(=O)NC(Cc1ccccc1)NC(C)=O (stereo not given) | HOP-92 | > 100 µM (inactive)
COc1ccc(C(=O)C(C(=O)C(=O)Nc2nccs2)c2ccc(OC)cc2)cc1 (stereo not given) | HOP-92 | > 100 µM (inactive)
CSc1nc2c(nc(N)n2C2OC(COC(C)=O)C(OC(C)=O)C(OC(C)=O)C2OC(C)=O)c(=O)n1C (stereo not given) | HOP-92 | > 100 µM (inactive)
CN(C)CCNC(=O)c1cccc2nc3c(Cl)cccc3nc12 | HOP-92 | 2.84 µM (inactive)

###

- System: K562
- assayInfo: NCI tumour cell line growth inhibition, 48 h
Calls of active or inactive are those of the source. No stated cut-off is given here; in the data, active = GI50 up to about 1.1 µM and inactive = higher.
Outcomes: 1.0 (active), 0.0 (inactive)

compound | labelValue
[O-][S+]1Nc2cccc(C(F)(F)F)c2S1 (stereo not drawn) | 0.0
C/C=C/C=C/C1=NN(c2cccc(S(=O)(=O)O)c2)C2(C1)C(Cl)C(=O)N2c1nc2ccccc2s1 (stereo not drawn) | 0.0
C=C1C(=O)OC2/C=C(\C)C(=O)CC3OC(C)(C)OC3(C)CC(OC(=O)/C(C)=C/C)C12 (stereo not drawn) | 0.0
C#CCCCC(=O)N(C(=O)C[S+]([O-])CC)c1ccccc1 (stereo not drawn) | 0.0
N=c1oc2ccccc2cc1C(=O)Nc1nccs1 | 0.0
COC(=O)[C@@]1(O)CC(C)C=C1C=O (stereo partly drawn) | 0.0
S=C=NCc1ccccc1 [BENZYL ISOTHIOCYANATE] | 1.0
COc1ccc(C2CC(c3ccc4ccccc4c3O)=NN2C(C)=O)cc1OC (stereo not drawn) | 0.0
Cc1nc(-[n+]2nc(-c3ccncc3)nn2-c2ccccc2)sc1C | 0.0
O=C1C[C@@H](Sc2ccccc2)C2(OCCO2)C2ON3CCCC[C@H]3[C@H]12 (stereo partly drawn) | 0.0
COc1ccc(N2C(=O)C3c4[nH]c5cc(Cl)ccc5c4C4CCC(C(C)(C)C)CC4C3C2=O)cc1 (stereo not drawn) | 0.0
COc1cc(C2OC(N)=C(C#N)C3=C2C(C)CCC3)cc(OC)c1OC (stereo not drawn) | 0.0
N=c1oc2c(Cl)cc(Cl)cc2cc1C(=O)Nc1cccc2ccccc12 | 0.0
COC(=O)[C@H](Cc1ccccc1)NC(=O)N1CCN(C(=O)N[C@@H](Cc2ccccc2)C(=O)OC)CCN(C(=O)N[C@@H](Cc2ccccc2)C(=O)OC)CC1 | 0.0
CN(C)c1ccc(/C=N\NC(=O)c2ccccc2Nc2ccccc2C(=O)N/N=C/c2ccc(N(C)C)cc2)cc1 | 0.0
NC1CCC2(O)c3ccccc3C2C1 (stereo not drawn) | 0.0
CCCN(CCc1ccc(-c2ccccc2)cc1)CCc1ccc2nn[nH]c2c1 | 0.0
COC(=O)C1=Nc2c(C)nn(-c3ccccc3)c2N=C(c2ccc([N+](=O)[O-])cc2)C1 | 0.0
CCOC(=O)c1c(O)cc(=O)[nH]c1N1CCOCC1 | 0.0
CCc1n[nH]c(=O)[nH]1 | 0.0
CN1C(NN)=NS(=O)(=O)c2ccccc21 | 0.0
Cc1ccc(/N=N/NCCCCN/N=N/c2ccc(C)cc2)cc1 | 0.0
CN1CCCCC1CCN1CCCCC1 (stereo not drawn) | 0.0
CCCCOc1ccc(/C=C/C2=[N+](CCO)CCO2)cc1 | 0.0
N#C/C(=C1\SC(C(N)=O)=C(N)N1c1ccccc1)c1nc2ccccc2[nH]1 | 0.0
CCC(=O)OC[n+]1ccc2c(C)c3[nH]c4ccc(OC)cc4c3c(C)c2c1 | 1.0
CC1(C)CCc2cc3c(-c4ccccc4)cc(=O)oc3cc2O1 | 0.0
C=C(C)C1CCC2=CC(CC3(C)OC3C3=CC(C(=O)OC)=C(C1)O3)OC2=O (stereo not drawn) | 0.0
CC1=CCCC2C1(C)CCC(C)C2(C)Cc1cc(O)ccc1O (stereo not drawn) | 0.0
CCCCCCCCCCCCCCCCCC(=O)NCC(COP(=O)([O-])OCC[N+](C)(C)C)OC (stereo not drawn) | 0.0
O=[N+]([O-])c1cc2c(c3nonc13)OCCCCO2 | 0.0
CC(=O)N(C)c1ccc2c(ccc[n+]2[O-])c1[N+](=O)[O-] | 0.0
CC(C)C(C(=O)O)N(CC1(O)OCC(O)C(O)C1O)N=O (stereo not drawn) | 0.0
CCOC(=O)Nc1cc(NC(/C=N/NC(C)=O)C(=O)OCC)c(OC)cc1NC(C)=O (stereo not drawn) | 0.0
CN(C)CC1(C)CC/C(=C\c2ccc3c(c2)OCO3)C1=O (stereo not drawn) | 0.0
COC(=O)NC(Cc1ccccc1)NC(C)=O (stereo not drawn) | 0.0
CCOP(=O)(OCC)C(NC(=O)C(C(F)(F)F)C(F)(F)F)c1ccccc1 (stereo not drawn) | 0.0
O=C(c1cccnc1)N1N=C(c2ccc3c(c2)OCO3)CC1(O)c1cc(F)c(Cl)cc1Cl (stereo not drawn) | 0.0
COC(=O)c1nsc(OC)c1Cl | 0.0
COC(=O)C1=C(C(=O)OC)C2=S(SC3=C2CCCC3)S1 (stereo not drawn) | 0.0
CCOC(=O)CCC(NC(=O)Cc1ccc(Nc2nc3ccccc3nc2-c2cccs2)cc1)C(=O)OCC (stereo not drawn) | 0.0
CC(=O)NNc1nc(C)c(C(/C=C/c2ccc(Cl)cc2)=N/NC(=O)C[N+](C)(C)C)s1 | 0.0
Clc1ccc2c(c1)-c1c3c(nn1-c1ccccc1)-c1ccccc1SC3O2 (stereo not drawn) | 0.0

###

- Tested on: MOLT-4
- assayInfo: NCI tumour cell line growth inhibition, 48 h
Calls of active or inactive are those of the source. Rule as the data show it: active = GI50 up to about 1.1 µM and inactive = higher.
Outcome codes: active, inactive

compound | labelValue
Oc1ccc(-c2nn3c(CCCCCCCCc4nnc5sc(-c6ccc(O)cc6)nn45)nnc3s2)cc1 | inactive
CN/C(=N\c1ccc(OC)c2ccccc12)SC | inactive
CCCCc1ccc(Nc2nc3c(ncn3COCCBr)c(=O)[nH]2)cc1 | inactive
O=C(N/C(=C\c1ccc(F)cc1)c1nc2ccccc2[nH]1)c1ccccc1 | inactive
Cc1ccc(/N=N/NCCCCN/N=N/c2ccc(C)cc2)cc1 | inactive
CCOC(=O)/C=C1\CCCC12OCCO2 | inactive
O=C1CCCCC1CN1CCCCC1 (stereo unspecified) | inactive
COc1ccc2c(c1)c1nn(CCN(C)C)c3ccc4c(=O)n(CCN(C)C)c(=O)n2c4c13 | active
CN(Cc1cc(Cl)cc(Cl)c1O)Cc1c(O)ccc2ccccc12 | inactive
CC(C)OC(=O)c1cccnc1/C=N/O | inactive
CN(C)c1ccc(/C=N\NC(=O)c2ccccc2Nc2ccccc2C(=O)N/N=C/c2ccc(N(C)C)cc2)cc1 | inactive
S=C1ON=C(c2ccccc2)/C1=C/Nc1ccccc1 | inactive
CC1(C)CCC[C@@]2(C)C1C(=O)[C@@H]1O[C@]1(C)[C@@H]2CO (stereo partly specified) | inactive
C[C@@H]1CC(=O)C2CCCC1C2=O (stereo partly specified) | inactive
c1ccc2c(c1)nnn2CN1CCOCC1 | inactive
CCc1cccc(C(C)C)c1NC1=C([n+]2ccc(C)cc2)C(=O)c2ccccc2C1=O.[O-][Cl+3]([O-])([O-])[O-] | active
COC(=O)CCc1c(Cc2ccc[nH]2)[nH]c(C(=O)OCc2ccccc2)c1C | inactive
COc1ccc2c(c1)CCN=C2Cc1ccccc1CCCl | inactive
Oc1ccc2c(c1)-c1c(c3cc(O)ccc3n1CCN1CCOCC1)CC2 | inactive
COc1ccc(CC2C(=O)NC(C)C(=O)N(C)C3Cc4ccc(cc4)Oc4cc(ccc4O)CC(C(=O)NC(C)C(=O)NC(C)C(=O)N2C)N(C)C3=O)cc1 (stereo unspecified) | active
O=c1c(C(c2ccc([N+](=O)[O-])cc2)c2c(O)c3ccccc3n(-c3ccccc3)c2=O)c(O)c2ccccc2n1-c1ccccc1 | inactive

###

Entries annotated with measured GI50
- Test system: SN12C
- assayInfo: NCI tumour cell line growth inhibition, 48 h
The source made the active and inactive calls. Rule as the data show it: active = GI50 up to about 1.1 µM and inactive = higher.

compound | GI50
S=C=NCc1ccccc1 [BENZYL ISOTHIOCYANATE] | 3.7 µM (inactive)
C#CCN(Cc1ccc2[nH]c(N)nc(=O)c2c1)c1ccc(C(=O)NC(CCC(=O)O)C(=O)O)cc1 (stereo not given) | 6.71 µM (inactive)
CSC(=S)N/N=C/c1nccc2ccccc12 | 1.6 µM (inactive)
Cc1ncc([N+](=O)[O-])n1CCNC(=O)Cn1ccnc1[N+](=O)[O-] | > 100 µM (inactive)
COc1cc(C2c3cc4c(cc3C(O)C3CCC(=O)N23)OCO4)cc(OC)c1OC (stereo not given) | 58.7 µM (inactive)

###

- Test system: HCC 2998
- assayInfo: NCI tumour cell line growth inhibition, 48 h
The source made the active and inactive calls. No stated cut-off is given here; in the data, active = GI50 up to about 1.1 µM and inactive = higher.
Labels: active, inactive

compound | targetEntity | labelValue
Oc1ccc(-c2nn3c(CCCCCCCCc4nnc5sc(-c6ccc(O)cc6)nn45)nnc3s2)cc1 | HCC 2998 | inactive
COC(=O)C1=C(C(=O)OC)C2=S(SC3=C2CCCC3)S1 (stereo not given) | HCC 2998 | inactive
COc1ccc(N2C(=O)C3c4[nH]c5cc(Cl)ccc5c4C4CCC(C(C)(C)C)CC4C3C2=O)cc1 (stereo not given) | HCC 2998 | inactive
Oc1ccc2c(c1)-c1c(c3cc(O)ccc3n1CCN1CCOCC1)CC2 | HCC 2998 | inactive
CCN(CC)CCCNc1ccc2ncn3c4ccc(O)cc4c(=O)c1c23 | HCC 2998 | inactive
CCN(C(C)=N)c1ccccc1 | HCC 2998 | inactive
COc1ccc(/C=C(/C(=O)c2ccc(Cl)cc2)N2C=CC=CC2=C(C#N)C#N)cc1OC | HCC 2998 | inactive
O=c1c2ccccc2[nH]c2cc(O)cc(O)c12 | HCC 2998 | inactive
C[C@H](N)C(=O)N[C@@H]1[C@H]2C(=C(O)C[C@@H](O)[C@@H]2O)C(=O)O[C@]1(C)C(Cl)Cl [BACTOBOLIN] | HCC 2998 | active
COc1ccc(C2Cc3cc(OC)c(OC)c(OC)c3C2)cc1 (stereo not given) | HCC 2998 | inactive
